assay_summary: Pharmacokinetics in AAV8-Ctrl mice
test_context: C57BL/6J, mouse, serum, po, 16.5 mg/kg, Tmax, aumolertinib 16.5 mg/kg oral alone (Aum)
measured_quantity: Tmax (h)
Respond numerically; units are h and should not be typed.

Per the record, `C=CC(=O)Nc1cc(Nc2nccc(-c3cn(C4CC4)c4ccccc34)n2)c(OC)cc1N(C)CCN(C)C` has Tmax of 1.29

====

assay_summary: Pharmacokinetics of aumolertinib and HAS-719 in SD rats
test_context: Sprague-Dawley, rat, plasma, po, 11 mg/kg, Cmax, aumolertinib 11 mg/kg oral alone (Aum)
measured_quantity: Cmax (ng/mL)
Give the quantity in ng/mL, number only.

# Cmax of `C=CC(=O)Nc1cc(Nc2nccc(-c3cn(C4CC4)c4ccccc34)n2)c(OC)cc1N(C)CCN(C)C` = 9.48

Numbers sourced from paper PMC11157048.
